biological target: T1, SARS-CoV-2 RBD-SD1 with murine IgG2a Fc part, produced in High Five cells (SARS-CoV-2, UniProt P0DTC2); experiment: ELISA; conditions: both partners purified
T1 construct: source: High Five insect cells, transient transfection, purified (Protein A)
readout-name: pEC50
In simple prose, pEC50 is minus the logarithm base ten of a concentration in moles per litre.

// solved cases for pEC50 follow
binder	pEC50
STE70-1E12 IgG (antibody, V domains shown, source: Expi293F, transfected, purified (Protein A); copies: 2 + 2) VH: QMQLVQSGAEVKKPGASVKVSCKASGYTFTGYYMHWVRQAPGQGLEWMGRINPNSGGTNYAQKFQGRVTMTRDTSTSTAYMELSRLRSDDTAVYYCVRDGYNFNNWFDPWGQGTLVTVSS VL: NFMLTQPHSVSGSPGETITISCTGSGGSIASNYVQWYRQRPGSAPTIVIYEDTQRPSGVPDRFSGSIDSSSNSASLTISGLKTEDEADYYCQSSESTNHVMFGGGSKLTVL	9.52
STE72-1B6 IgG (antibody, V domains shown, source: Expi293F, transfected, purified (Protein A); copies: 2 + 2) VH: QVKLVQSGGGLVQPGGSLRLSCAASGFTFSSYAMSWVRQAPGKGLEWVSGISGSGGSTYYADSVKGRFTISRDNSKNTLYLQVNSLRAEDTAVYYCAKAPYGDFRGLWYFDYWGQGTLVTVSS VL: DIVMTQSPFSVSASVGDRVTISCRASQDIRSWLAWYQQKPGKAPQLLIYDASSLQSGVPSRFSGSGSGTDFTLTISSLQPEDFATYYCQQADSVPLTFGGGTKVEIQ	8.96
STE72-4C10 scFv-Fc (scFv, V domains shown, also called scFv-hFc; source: Expi293F, transient transfection, purified (Protein A)) VH: EVQLQESGGGVVQPGRSLRLSCAASGFTFSSYAMHWVRQAPGKGLEWVAVISYDGSNKYYADSVKGRFTISRDNSKNTLYLQMNSLRAEDTAVYYCAREYSSSWYGLGAFDIWGQGTMVTVSS VL: DIRLTQSPSSLSASVGDRVTITCRASQNIHYYLNWYQQKPGKAPSLLVYGASSLQSGVPSRFSGSGSGTEYTLTISSLQPEDFATYFCQQSFKSPATFGQGTKVDIK	9.30
STE73-6C8 IgG (antibody, V domains shown, source: Expi293F, transfected, purified (Protein A); copies: 2 + 2) VH: QVQLQQSGAEVKKPGSSVKVSCKASGGTFSSYAISWVRQAPGQGLEWMGRIIPILGIANYAQKFQGRVTITADKSTSTAYMELSSLRSEDTAVYYCARSIAALNWFDPWGQGTLVTVSS VL: NFMLTQPHSVSESPGKTVTIPCTGSRGSIANNYVQWYRQRPGRAPTTVIFEDNQRPSGVPDRFSGSIDRSSNSASLTISGLETEDEADYYCQSYDGSNVIFGGGTKLTVL	8.54

For STE72-8E1 scFv-Fc (scFv, V domains shown, also called scFv-hFc; source: Expi293F, transient transfection, purified (Protein A)) VH: QVQLQEWGPGLVQPSETLSLTCTVSGGSISSGGYYWSWIRQHPGKGLEWIGRIYPSGSTNYNPSLKSRVTMSVDTSENQFSLKLSSVTAADTAVYYCARGGPKRSGSPFDVWGQGTMVTVSS VL: EVVMTQSPSTLSASVGDRVTITCRASQTFGPWLAWYQQKPGQAPKLLIYMASELESGVPSRFSGSGSGTEFTLSISSLQPDDFATYYCQQYNTFSPWTFGQGTKVDIK the binder record lists pEC50 as 9.40
